Data credit: BigSolDB 2.1

Settings: in ethylene glycol, 298.15 K
reported.metric: solubility (mole fraction)

Req: Record request: solubility (mole fraction) value, item Nc1cccc2ccncc12
Resp: 0.00022

====

Conditions: in DMF, 278.15 K
reported.metric: solubility (mole fraction)
Give bare numbers.

Req: Record request: solubility (mole fraction) value, item Nc1cccc2ccncc12
Resp: 0.00564

====

Conditions: in ethanol, 288.15 K
reported.metric: solubility (mole fraction)
Numbers only.

Req: Record request: solubility (mole fraction) value, item Nc1cccc2ccncc12
Resp: 0.00191

====

Conditions: in propylene glycol, 313.15 K
reported.metric: solubility (mole fraction)
Answers are plain numbers.

Req: Record request: solubility (mole fraction) value, item Nc1cccc2ccncc12
Resp: 0.000608

====

Conditions: in DMF, 298.15 K
reported.metric: solubility (mole fraction)
Numbers only.

Req: Record request: solubility (mole fraction) value, item Nc1cccc2ccncc12
Resp: 0.0119

====

Conditions: in DMF, 308.15 K
reported.metric: solubility (mole fraction)

Req: Record request: solubility (mole fraction) value, item Nc1cccc2ccncc12
Resp: 0.0167

====

Conditions: in ethylene glycol, 308.15 K
reported.metric: solubility (mole fraction)
Give bare numbers.

Req: Record request: solubility (mole fraction) value, item Nc1cccc2ccncc12
Resp: 0.000313

====

Conditions: in propylene glycol, 298.15 K
reported.metric: solubility (mole fraction)
Numbers only.

Req: Record request: solubility (mole fraction) value, item Nc1cccc2ccncc12
Resp: 0.000366

====

Details: in acetone, 308.15 K
reported.metric: solubility (mole fraction)
Numbers only.

Req: Record request: solubility (mole fraction) value, item Nc1cccc2ccncc12
Resp: 0.00896
